Molecular target: T1, human CD33 (human, UniProt P20138 18-259, limits assumed)
T1 construct: Human CD33 immobilized on the BLI sensor tip or the BIAcore C1 chip; also called Siglec-3
T1 sequence (P20138 18-259 limits assumed): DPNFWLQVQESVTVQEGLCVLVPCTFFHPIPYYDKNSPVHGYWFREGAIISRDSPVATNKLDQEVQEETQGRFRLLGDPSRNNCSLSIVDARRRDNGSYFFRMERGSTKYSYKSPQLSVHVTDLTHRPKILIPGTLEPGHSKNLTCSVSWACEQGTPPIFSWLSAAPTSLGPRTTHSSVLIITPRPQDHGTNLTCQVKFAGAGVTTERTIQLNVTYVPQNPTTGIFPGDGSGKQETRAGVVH
Test: BLI (ForteBio), Fab 100 nM on immobilized CD33
Protocol: The affinities (KD) of the humanized antibodies for human CD33 were measured for each antibody by BioLayer Interferometry in a ForteBio assay according to standard techniques (Estep et al. (2013) MAbs 5(2): 270-8). […] The assay was carried out at room temperature. The affinities of AB-H14 and its affinity-matured variants (Table 15) and AB-H63 and its affinity-matured variants (Table 16), for human CD33 were measured by Fortebio assay according to the method described in Example 1 above.
Please mark class 1 if the recorded Fold affinity improvement over parental Ab (AB-H63) is equal to or greater than 4 fold, and class 0 if it falls below.

Has AB-63.8 (antibody, V domains shown) VH: QVQLVQSGAEVKKPGSSVKVSCKASGVTFTDYNYHWVRQAPGQGLEWIGFIYPSNGITGYAQKFQDRVTMTVDTSTSTVYMELSSLRSEDTAVYYCARSTVDYFDYWGQGTLVTVSS VL: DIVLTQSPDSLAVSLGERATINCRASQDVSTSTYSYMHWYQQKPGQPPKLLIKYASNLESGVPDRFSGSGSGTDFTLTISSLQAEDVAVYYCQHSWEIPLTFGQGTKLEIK a recorded Fold affinity improvement over parental Ab (AB-H63) greater than or equal to 4 fold?
class 1

Has AB-63.13 (antibody, V domains shown) VH: QVQLVQSGAEVKKPGASVKVSCKASGYTFTDYNLHWVRQAPGQGLEWIGFIYPSNGIRGYAQKFQGRVTMTVDTSTSTVYMELSSLRSEDTAVYYCARSDVDYFDYWGQGTLVTVSS VL: DIVLTQSPDSLAVSLGERATINCRASQSVSTSTYSYMHWYQQKPGQPPKLLIKYASNLESGVPDRFSGSGSGTDFTLTISSLQAEDVAVYYCQHSEEIPLTFGQGTKLEIK a recorded Fold affinity improvement over parental Ab (AB-H63) greater than or equal to 4 fold?
class 1

Has AB-63.5 (antibody, V domains shown) VH: QVQLVQSGAEVKKPGASVKVSCKASGYTFTDYNNHWVRQAPGQGLEWIGFIYPSNGITGYAQKFQGRVTMTVDTSTSTVYMELSSLRSEDTAVYYCARSDVDYFDYWGQGTLVTVSS VL: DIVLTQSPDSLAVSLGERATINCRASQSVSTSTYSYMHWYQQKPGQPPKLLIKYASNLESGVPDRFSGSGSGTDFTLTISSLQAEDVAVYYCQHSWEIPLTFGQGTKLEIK a recorded Fold affinity improvement over parental Ab (AB-H63) greater than or equal to 4 fold?
class 1

Has AB-63.4 (antibody, V domains shown) VH: QVQLVQSGAEVKKPGASVKVSCKASGYTFTDYNYHWVRQAPGQGLEWIGFIYPSNGITGYAQKFQGRVTMTVDTSTSTVYMELSSLRSEDTAVYYCARSTVDYFDYWGQGTLVTVSS VL: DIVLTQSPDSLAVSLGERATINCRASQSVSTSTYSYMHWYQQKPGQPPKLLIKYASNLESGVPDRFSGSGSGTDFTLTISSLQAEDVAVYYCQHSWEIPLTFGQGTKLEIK a recorded Fold affinity improvement over parental Ab (AB-H63) greater than or equal to 4 fold?
class 0

Has AB-63.10 (antibody, V domains shown) VH: QVQLVQSGAEVKKPGASVKVSCKASGYTETDYNLHWVRQAPGQGLEWIGFIYPSNGITGYAQKFQGRVTMTVDTSTSTVYMELSSLRSEDTAVYYCARSDVDYFDYWGQGTLVTVSS VL: DIVLTQSPDSLAVSLGERATINCRASQDVSTSTYSYMHWYQQKPGQPPKLLIKYASNLESGVPDRFSGSGSGTDFTLTISSLQAEDVAVYYCQHSWELPLTFGQGTKLEIK a recorded Fold affinity improvement over parental Ab (AB-H63) greater than or equal to 4 fold?
class 1

Provenance of the data: patent US20210139581A1
